Test system: SW 1271 complex spheroids, viability
MEASUREMENT_PROTOCOL: Anticancer human tumor SW 1271 cell line growth inhibition [LSD1];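 also: spheroids exposed to agents for 7 days before luminescence read; 100% = DMSO vehicle control viability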
CONDITION_DETAILS: second compound 0.316 µM; first compound 0.316 µM; stronger effect = lower value
MEASURED_METRIC: viability, T/C (%)
A number alone suffices; assume %.

Ask: Data request, read-out viability, T/C, for CC1(C)CCC(CN2CCN(c3ccc(C(=O)NS(=O)(=O)c4ccc(NCC5CCOCC5)c([N+](=O)[O-])c4)c(Oc4cnc5[nH]ccc5c4)c3)CC2)=C(c2ccc(Cl)cc2)C1 + NC1CC1c1ccc(-c2cccc(O)c2)cc1
Result: 91.8

Ask: Record request: viability, T/C value, item Nc1ncn(C2CC(O)C(CO)O2)c(=O)n1 (stereo not given) + NC1CC1c1ccc(-c2cccc(O)c2)cc1
Result: 70.5

Ask: Given the entry CC1COCCN1c1cc(-c2ccnn2C)c2ccnc(-c3ccn[nH]3)c2n1 (stereo not given) + NC1CC1c1ccc(-c2cccc(O)c2)cc1 , report its measured viability, T/C.
Result: 39.1

Ask: Form field: reported viability, T/C of O=C(C=Cn1cnc(-c2cc(C(F)(F)F)cc(C(F)(F)F)c2)n1)NNc1cnccn1 + NC1CCC(NC2CC2c2ccccc2)CC1
Result: 46

Ask: Item under review: CC(C)c1c(-c2ccccc2)nc2c(C#N)c[nH]n2c1=O + NC1CC1c1ccc(-c2cccc(O)c2)cc1 . Reported viability, T/C?
Result: 80.9
